Some compounds, each annotated with its measured selective drug sensitivity score.
Tested on: DND-41;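 note: ALL cell lines in 384-well plates, five doses spanning 10,000-fold, each plate scaled between vehicle and 100 µmol/L benzalkonium chloride controls, sDSS an adapted area-under-curve metric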
method notes: selective drug sensitivity score (sDSS, relative to normal bone marrow) (sDSS (score)); higher = more potent and effective on the cell line relative to normal bone marrow cells
measurement context: 72 h
Number only, please.

| compound | value reported |
| --- | --- |
| O[C@H]1CC[C@H](Nc2ncc3nc(Nc4c(F)cc(F)cc4F)n([C@H]4CCOC4)c3n2)CC1 [Tanzisertib] (top concentration 10000 nM) | 0 |
| Cc1ncc(-c2ccnc(Nc3ccc(S(C)(=O)=O)cc3)n2)n1C(C)C [AZD-5438] (top concentration 10000 nM) | -2.06 |

API: the following record is the query input.
Which measured selective drug sensitivity score value corresponds to CCCCc1nc2cc(/C=C/C(=O)NO)ccc2n1CCN(CC)CC [Pracinostat] (top concentration 10000 nM) ?
3.48
